# TARGET_ENTITY: Hemoglobin HbA (Homo sapiens) (UniProt P69905+P68871)
# Sequence (P68871 2-147 partner limits assumed): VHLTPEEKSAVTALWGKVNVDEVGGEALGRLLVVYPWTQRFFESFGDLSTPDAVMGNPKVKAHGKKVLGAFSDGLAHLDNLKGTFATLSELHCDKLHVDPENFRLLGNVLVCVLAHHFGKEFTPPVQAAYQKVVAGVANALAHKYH
# Sequence (P69905 2-142 limits assumed): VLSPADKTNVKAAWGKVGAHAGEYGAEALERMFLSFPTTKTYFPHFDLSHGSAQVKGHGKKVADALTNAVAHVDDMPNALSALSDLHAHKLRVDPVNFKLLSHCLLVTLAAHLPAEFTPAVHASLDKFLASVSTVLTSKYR
# TEST_DETAILS: Ability to right-shift the oxygen equilibrium curves (OECs) quantified by ability to increase in P50 at which Hb was 50% saturated with oxygen in the presence of the effector at the concentration of 5 mM.
# Type: functional
TEST_READOUT: P50e (mmHg)
Respond numerically; units are mmHg and should not be typed.

Cc1cc(C)cc(NC(=O)Cc2ccc(OC3(C(=O)N[C@@H](CCCCNC(=O)OCc4ccccc4)C(=O)O)CCCC3)cc2)c1	45
CSCC[C@H](NC(=O)C1(Oc2ccc(CC(=O)Nc3cc(C)cc(C)c3)cc2)CCCC1)C(=O)O	56.8
Cc1cc(C)cc(NC(=O)Cc2ccc(OC3(C(=O)N[C@@H](CO)C(=O)O)CCCC3)cc2)c1	44.7
Cc1cc(C)cc(NC(=O)Cc2ccc(OC3(C(=O)NCC(=O)O)CCCC3)cc2)c1	52.6
CSCC[C@@H](NC(=O)C1(Oc2ccc(CC(=O)Nc3cc(C)cc(C)c3)cc2)CCCC1)C(=O)O	45.5
Cc1cc(C)cc(NC(=O)Cc2ccc(OC3(C(=O)O)CCCC3)cc2)c1	74.7
Cc1cc(C)cc(NC(=O)Cc2ccc(OC3(C(=O)N[C@@H](C(=O)O)C(C)C)CCCC3)cc2)c1	57.3

# input Determine from records and report P50e for `Cc1cc(C)cc(NC(=O)Cc2ccc(OC3(C(=O)N[C@H](Cc4ccc5[nH]ccc5c4)C(=O)O)CCCC3)cc2)c1`
# output 49.9

* * *

# TARGET_ENTITY: Hemoglobin HbA (Homo sapiens) (UniProt P69905+P68871)
# TEST_DETAILS: Oxygen pressure in mmHg at which Hb is 50% saturated with oxygen at 50-60 uM heme concentration and in the presence of 0.5 mM effector.
# Type: functional
TEST_READOUT: P50e (mmHg)
Respond numerically; units are mmHg and should not be typed.

Cc1cc(C)cc(NC(=O)Cc2ccc(OC3(C(=O)N[C@H](CO)C(=O)O)CCCC3)cc2)c1	11.2
Cc1cc(C)cc(NC(=O)Cc2ccc(OC3(C(=O)N[C@H](Cc4ccccc4)C(=O)O)CCCC3)cc2)c1	8.2
Cc1cc(C)cc(NC(=O)Cc2ccc(OC3(C(=O)N[C@@H](Cc4ccccc4)C(=O)O)CCCC3)cc2)c1	12.4
CSCC[C@@H](NC(=O)C1(Oc2ccc(CC(=O)Nc3cc(C)cc(C)c3)cc2)CCCC1)C(=O)O	9.5

Could you now look at the following compound, please?
# input Determine from records and report P50e for `Cc1cc(C)cc(NC(=O)Cc2ccc(OC3(C(=O)N[C@@H](C(=O)O)C(C)C)CCCC3)cc2)c1`
# output 13.9

* * *

# TARGET_ENTITY: Hemoglobin HbA (Homo sapiens) (UniProt P69905+P68871)
# TEST_DETAILS: The difference in the partial pressure of oxygen at 50% saturated Hb
# Assay type: functional
TEST_READOUT: Delta P50
In your answer, state the number alone without any accompanying words.

Cc1cc(C)cc(NC(=O)Cc2ccc(OC3(C(=O)N[C@@H](CCCCN)C(=O)O)CCCC3)cc2)c1	-0.2
CC[C@@H](C)[C@@H](NC(=O)C1(Oc2ccc(CC(=O)Nc3cc(C)cc(C)c3)cc2)CCCC1)C(=O)O	13.2
Cc1cc(C)cc(NC(=O)Cc2ccc(OC3(C(=O)N[C@H](C)C(=O)O)CCCC3)cc2)c1	21.9
Cc1cc(C)cc(NC(=O)Cc2ccc(OC3(C(=O)N[C@H](CC(C)C)C(=O)O)CCCC3)cc2)c1	15.2
Cc1cc(C)cc(NC(=O)Cc2ccc(OC3(C(=O)N[C@@H](Cc4ccccc4)C(=O)O)CCCC3)cc2)c1	38.4
Cc1cc(C)cc(NC(=O)Cc2ccc(OC3(C(=O)N[C@H](Cc4ccc(O)cc4)C(=O)O)CCCC3)cc2)c1	20.8

# input Provide the reported Delta P50 (system: Hemoglobin HbA (Homo sapiens) (UniProt P69905+P68871)) for Cc1cc(C)cc(NC(=O)Cc2ccc(OC3(C(=O)N[C@@H](C(=O)O)C(C)O)CCCC3)cc2)c1 (stereo partly drawn)
# output 12.9

# input Provide the reported Delta P50 (system: Hemoglobin HbA (Homo sapiens) (UniProt P69905+P68871)) for `Cc1cc(C)cc(NC(=O)Cc2ccc(OC3(C(=O)N[C@H](Cc4ccc5[nH]ccc5c4)C(=O)O)CCCC3)cc2)c1`
# output 20
